Recorded log10 ECL signal for the following binders
# target of assay: T1, DR4G103: Human HLA-DRA1*01:02/DRB1*15:01 ECD with hemagglutinin peptide HA_304-318 (human)
# T1 construct: also called DRB1*15:01 HA
# protocol description: MSD ECL; antigen coated; protocol of Example 3;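 also: antibodies tested at 0.04–5 µg/ml on plate-coated soluble HLA-DR carrying peptide on the beta chain N-terminus, bound antibody detected by SulfoTag anti-human kappa secondary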
Values reflect log10 of reported ECL signal (ECL).

binder	log10 ECL signal
DR4B6 (antibody, V domains shown, also called L243 re-engineered as IgG2sigma) VH: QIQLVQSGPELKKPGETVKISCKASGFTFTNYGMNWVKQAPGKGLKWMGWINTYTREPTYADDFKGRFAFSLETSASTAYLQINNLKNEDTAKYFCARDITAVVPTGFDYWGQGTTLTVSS VL: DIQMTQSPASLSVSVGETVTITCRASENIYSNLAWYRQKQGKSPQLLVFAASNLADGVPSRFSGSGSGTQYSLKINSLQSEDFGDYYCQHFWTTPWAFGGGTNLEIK	5.15

DR4B127 (antibody, human IgG2, kappa, V domains shown, also called VH DR4H7 / VL PH9L3) VH: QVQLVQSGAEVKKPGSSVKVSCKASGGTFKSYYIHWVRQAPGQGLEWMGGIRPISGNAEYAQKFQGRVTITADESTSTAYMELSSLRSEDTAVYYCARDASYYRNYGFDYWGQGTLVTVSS VL: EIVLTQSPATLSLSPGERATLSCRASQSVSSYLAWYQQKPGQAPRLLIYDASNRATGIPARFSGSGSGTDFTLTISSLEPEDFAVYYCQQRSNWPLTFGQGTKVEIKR yielded log10 ECL signal of 5.52

The binder listed as DR4B98 (antibody, human IgG2, kappa, V domains shown, also called VH DR4H50 / VL PH9L3) VH: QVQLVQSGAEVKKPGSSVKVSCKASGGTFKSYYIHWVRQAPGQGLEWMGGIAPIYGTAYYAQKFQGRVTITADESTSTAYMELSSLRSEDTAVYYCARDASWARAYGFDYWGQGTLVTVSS VL: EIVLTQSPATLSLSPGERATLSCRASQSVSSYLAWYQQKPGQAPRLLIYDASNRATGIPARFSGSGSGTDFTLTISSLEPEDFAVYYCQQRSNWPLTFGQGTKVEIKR shows log10 ECL signal equal to 4.54

response.value for DR4B5 (antibody, V domains shown, also called apolizumab (1D10) re-engineered as IgG2sigma) VH: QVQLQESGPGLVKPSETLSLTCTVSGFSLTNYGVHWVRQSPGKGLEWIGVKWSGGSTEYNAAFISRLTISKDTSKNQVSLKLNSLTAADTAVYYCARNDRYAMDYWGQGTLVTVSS VL: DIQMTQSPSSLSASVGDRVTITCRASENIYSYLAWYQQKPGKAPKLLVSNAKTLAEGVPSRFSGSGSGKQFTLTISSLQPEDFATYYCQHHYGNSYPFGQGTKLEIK (field: log10 ECL signal) = 2.52

Reported log10 ECL signal of DR4B4 (antibody, V domains shown, also called Lym-1 re-engineered as IgG2sigma) VH: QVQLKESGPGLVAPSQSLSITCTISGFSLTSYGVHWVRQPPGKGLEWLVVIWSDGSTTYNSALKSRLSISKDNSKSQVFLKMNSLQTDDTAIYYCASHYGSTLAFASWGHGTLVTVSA VL: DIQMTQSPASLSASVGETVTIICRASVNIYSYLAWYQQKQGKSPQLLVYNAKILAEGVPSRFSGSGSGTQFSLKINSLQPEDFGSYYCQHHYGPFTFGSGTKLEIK : 2.46
